- TEST_SYSTEM: HIV-1 envelope glycoprotein gp120 of virus 92US727 (HIV-1)
- PROCEDURE_TEXT: cell-based or functional assay
QUANTITY_NAME: neutralization IC50

Input: neutralization IC50 lookup needed for 3.1.18-1 (antibody, human IgG1, kappa, V domains shown) VH: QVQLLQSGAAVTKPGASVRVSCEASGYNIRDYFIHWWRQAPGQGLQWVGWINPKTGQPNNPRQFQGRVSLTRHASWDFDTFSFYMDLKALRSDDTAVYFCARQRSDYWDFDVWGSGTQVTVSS VL: DIQMTQSPSSLSARVGDRATITCQANGYLNWYQQRRGKAPKLLIYDGSKLERGVPARFSGSRWGQEYHLTISSLQPEDVATYFCQVYEFFGPGTRLDLKR , thanks.
Output: > 9.8 µg/mL

Input: Same read-out for 1.1.104-1 (antibody, human IgG1, kappa, V domains shown) VH: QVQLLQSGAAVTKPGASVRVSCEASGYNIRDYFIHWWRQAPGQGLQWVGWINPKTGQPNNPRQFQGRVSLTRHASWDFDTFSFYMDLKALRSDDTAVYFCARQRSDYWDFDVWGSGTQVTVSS VL: DIQMTQSPSSLSASVGDTATITCQANGYLNWYQQRRGKAPKLLIYDGSKLERGVPSRFSGRRWGQEYTLTINNLQPEDIATYFCQVYEFFGPGTRLDLKR ?
Output: > 50 µg/mL
